Test Target: T1, Recombinant human CD123 SP1 ECD-His tag protein (human, UniProt P26951 20-305)
T1 construct: bought from R&D Systems (#301-R3/CF); biotinylated for some assays; also called rhCD123 SP1; huCD123 ECD SP1
T1 sequence: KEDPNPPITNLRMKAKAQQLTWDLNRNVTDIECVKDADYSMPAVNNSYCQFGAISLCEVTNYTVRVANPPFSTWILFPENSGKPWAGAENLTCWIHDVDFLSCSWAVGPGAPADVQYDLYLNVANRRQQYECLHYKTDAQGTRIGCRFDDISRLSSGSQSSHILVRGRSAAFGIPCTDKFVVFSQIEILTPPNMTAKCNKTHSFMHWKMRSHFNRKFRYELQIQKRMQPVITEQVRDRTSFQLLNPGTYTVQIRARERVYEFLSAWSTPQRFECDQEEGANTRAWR
Method Notes: SPR ProteOn, captured mAb
Entries and their Kd values follow.
Value expressed in nM; do not type the unit.

Consider the worked cases shown below.
{"columns": ["Binder", "Kd / nM"],
 "data": [
  ["I3RB33 (antibody, IgG1, V domains shown, IgG1) VH: QVQLVQSGAEVKKPGSSVKVSCKASGGTFSSYGISWVRQAPGQGLEWMGGIIPIFGTANYAQKFQGRVTITADESTSTAYMELSSLRSEDTAVYYCARGYWHWNYDYLDYWGQGTLVTVSS VL: EIVLTQSPATLSLSPGERATLSCRASQSVNDWLAWYQQKPGQAPRLLIYGASNRATGIPARFSGSGSGTDFTLTISSLEPEDFAVYYCQQYKRAPYTFGQGTKVEIK", 4.23],
  ["I3RB2 (antibody, IgG1, V domains shown, IgG1; also called I3RB02; 13RB2) VH: EVQLLESGGGLVQPGGSLRLSCAASGFTFSGYWMHWVRQAPGKGLEWVSAIRSDGSSKYYADSVKGRFTISRDNSKNTLYLQMNSLRAEDTAVYYCAKDGVIEDTFDYWGQGTLVTVSS VL: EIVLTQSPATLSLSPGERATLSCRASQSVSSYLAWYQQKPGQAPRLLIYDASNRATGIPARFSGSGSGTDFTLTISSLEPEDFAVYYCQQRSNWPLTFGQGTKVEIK", 4.5]
]}

Please turn your attention to the following entry.
Q: Bench note: what Kd did I3RB18 (antibody, IgG1, V domains shown, IgG1; also called 13RB18; mAb I3RB18) VH: EVQLVQSGAEVKKPGESLKISCKGSGYSFTSYWISWVRQMPGKGLEWMGIIDPSDSDTRYSPSFQGQVTISADKSISTAYLQWSSLKASDTAMYYCARGDGSTDLDYWGQGTLVTVSS VL: EIVLTQSPGTLSLSPGERATLSCRASQSVSSSYLAWYQQKPGQAPRLLIYGASSRATGIPDRFSGSGSGTDFTLTISRLEPEDFAVYYCQQDYGFPWTFGQGTKVEIK show?
Result: 0.57

Values from patent US20160068605A1
